Measured inhibition at 0.2 µM, listed per entry for reference.
- Target System: canine TRPM8 (Canis lupus familiaris)
- Sequence (Q1A7N1 1-1104): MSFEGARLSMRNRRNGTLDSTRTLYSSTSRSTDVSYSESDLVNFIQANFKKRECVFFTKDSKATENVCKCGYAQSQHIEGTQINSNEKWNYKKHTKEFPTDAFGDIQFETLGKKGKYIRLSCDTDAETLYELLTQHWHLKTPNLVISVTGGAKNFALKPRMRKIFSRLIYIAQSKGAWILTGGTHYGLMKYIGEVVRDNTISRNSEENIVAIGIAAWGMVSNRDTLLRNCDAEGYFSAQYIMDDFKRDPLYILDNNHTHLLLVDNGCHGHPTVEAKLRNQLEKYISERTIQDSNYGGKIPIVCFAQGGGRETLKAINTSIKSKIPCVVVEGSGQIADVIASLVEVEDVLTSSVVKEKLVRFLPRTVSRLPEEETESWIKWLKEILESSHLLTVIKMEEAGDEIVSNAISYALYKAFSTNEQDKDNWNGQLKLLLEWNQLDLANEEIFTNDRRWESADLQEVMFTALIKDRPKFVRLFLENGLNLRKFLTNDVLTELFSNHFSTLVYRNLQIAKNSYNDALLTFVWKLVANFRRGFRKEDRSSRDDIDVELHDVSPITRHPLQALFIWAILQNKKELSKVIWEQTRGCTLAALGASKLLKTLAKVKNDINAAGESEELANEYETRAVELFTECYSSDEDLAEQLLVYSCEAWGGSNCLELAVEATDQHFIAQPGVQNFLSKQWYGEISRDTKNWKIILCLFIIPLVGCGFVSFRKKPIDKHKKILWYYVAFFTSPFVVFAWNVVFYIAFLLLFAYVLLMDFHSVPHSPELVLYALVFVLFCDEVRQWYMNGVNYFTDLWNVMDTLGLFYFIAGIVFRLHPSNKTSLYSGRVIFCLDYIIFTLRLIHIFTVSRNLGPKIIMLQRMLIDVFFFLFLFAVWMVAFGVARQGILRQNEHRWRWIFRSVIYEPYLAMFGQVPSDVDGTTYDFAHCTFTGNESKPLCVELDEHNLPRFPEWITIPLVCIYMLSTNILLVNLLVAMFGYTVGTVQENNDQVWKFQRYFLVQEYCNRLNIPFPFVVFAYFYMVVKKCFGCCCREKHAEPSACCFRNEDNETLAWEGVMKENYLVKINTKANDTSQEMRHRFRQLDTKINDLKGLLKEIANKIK
- Test Protocol: In Vitro Canine TRPM8 Functional Assay (Ca2+ fluorescence, icilin activation)
- Format: cell-based
- Cond: compound at 0.2 μM; canine TRPM8, icilin activation; read-out: % Inh @ 0.2

| Chem Smiles | inhibition at 0.2 µM [%] |
| --- | --- |
| CCCCN(c1sc2ccccc2c1C)S(=O)(=O)c1ccc(-c2nnn[nH]2)cc1 | 105 |
| Cc1c(N(CCC2CC2)S(=O)(=O)c2cccc(C#N)c2)sc2ccccc12 | 104 |
| O=S(=O)(c1ccccc1)N(CCCc1ccccc1)c1sc2ccccc2c1Br | 102 |
| O=C(O)c1ccc(S(=O)(=O)N(CCC(F)(F)F)c2sc3ccccc3c2Br)c(F)c1 | 102 |
| CS(=O)(=O)Nc1ccc(S(=O)(=O)N(Cc2ccc(F)c(C(F)(F)F)c2)c2cc3ccccc3s2)cc1 | 102 |
| Cc1c(N(Cc2ccc(F)c(C(F)(F)F)c2)S(=O)(=O)c2ccc(-c3cc(C(F)(F)F)on3)s2)sc2ccccc12 | 17 |
| CCCCN(c1sc2ccccc2c1C(C)=O)S(=O)(=O)CC | 86 |
| O=S(=O)(c1ccccc1)N(CC(F)F)c1sc2ccccc2c1Br | 95 |
| Cc1c(N(Cc2ccc(F)c(C(F)(F)F)c2)S(=O)(=O)CCCCBr)sc2ccccc12 | 96 |
| CCS(=O)(=O)N(CCOC(C)(C)C)c1sc2ccccc2c1C(C)=O | 60 |
| CCS(=O)(=O)N(CC(F)F)c1sc2ccccc2c1C | 68 |
| CC(C)(O)c1c(N(Cc2ccccc2)S(=O)(=O)c2ccc(Br)cc2)sc2ccccc12 | 101 |
| COC(=O)c1ccc(S(=O)(=O)N(Cc2ccc(OC(F)(F)F)cc2)c2sc3ccccc3c2C2CCC2)cc1 | 82 |
| COC(=O)CN(c1sc2ccccc2c1Br)S(=O)(=O)c1ccccc1 | 98 |
| CCS(=O)(=O)N(CC1CC1)c1sc2ccccc2c1Br | 94 |
| CS(=O)(=O)N(Cc1ccc(F)c(C(F)(F)F)c1)c1sc2ccccc2c1CO | 101 |
| CCCCN(c1sc2ccccc2c1Br)S(=O)(=O)CC | 97 |
| O=S(=O)(c1ccc(Cl)nc1)N(Cc1ccc(F)c(C(F)(F)F)c1)c1cc2ccccc2s1 | 82 |
| CC(=O)CCCN(c1sc2ccccc2c1Br)S(=O)(=O)c1ccccc1 | 101 |
| O=C(Nc1ccc(S(=O)(=O)N(CCC2CC2)c2sc3ccccc3c2Cl)cc1)C(F)(F)F | 42 |
| O=C(O)c1ccc(S(=O)(=O)N(Cc2ccc(F)c(C(F)(F)F)c2)c2sc3ccccc3c2CO)cc1 | 90 |
| CC#CCCN(c1sc2ccccc2c1Br)S(=O)(=O)c1ccccc1 | 95 |
| Cc1c(N(CCCCC(F)(F)F)S(=O)(=O)c2ccccc2)sc2ccccc12 | 101 |
| Nc1ccc(S(=O)(=O)N(Cc2ccc(F)c(C(F)(F)F)c2)c2sc3ccccc3c2Br)cc1 | 102 |
| CS(=O)(=O)Nc1ccc(S(=O)(=O)N(CCC(F)(F)F)c2sc3ccccc3c2Br)cc1 | 101 |
| Cc1c(N(CCCCC(F)(F)F)S(=O)(=O)c2ccc(N3CCOCC3)cc2)sc2ccccc12 | 101 |
| COC(=O)c1cccc(S(=O)(=O)N(Cc2ccc(F)c(C(F)(F)F)c2)c2sc3ccccc3c2Cl)c1 | 88 |
| O=C(O)c1ccc(S(=O)(=O)N(Cc2ccc(OC(F)(F)F)cc2)c2sc3ccccc3c2C2CC2)cc1 | 101 |
| Cc1c(N(Cc2ccc(F)c(C(F)(F)F)c2)S(=O)(=O)c2cccc(C(=O)O)c2)sc2ccccc12 | 97 |
| NC(=O)c1c(N(Cc2ccc(F)c(C(F)(F)F)c2)S(=O)(=O)c2ccccc2)sc2ccccc12 | 102 |
| Cc1c(N(Cc2ccc(F)c(C(F)(F)F)c2)S(=O)(=O)c2cccc3c2CNCC3)sc2ccccc12 | 69 |
| CCS(=O)(=O)N(Cc1ccc(F)c(F)c1)c1sc2ccccc2c1CO | 101 |
| Nc1ccc(S(=O)(=O)N(Cc2ccc(F)c(C(F)(F)F)c2)c2cc3ccccc3s2)cc1 | 102 |
